assayedTarget: JAK2 (Homo sapiens (Human), UniProt O60674)
Sequence (O60674 826-1132): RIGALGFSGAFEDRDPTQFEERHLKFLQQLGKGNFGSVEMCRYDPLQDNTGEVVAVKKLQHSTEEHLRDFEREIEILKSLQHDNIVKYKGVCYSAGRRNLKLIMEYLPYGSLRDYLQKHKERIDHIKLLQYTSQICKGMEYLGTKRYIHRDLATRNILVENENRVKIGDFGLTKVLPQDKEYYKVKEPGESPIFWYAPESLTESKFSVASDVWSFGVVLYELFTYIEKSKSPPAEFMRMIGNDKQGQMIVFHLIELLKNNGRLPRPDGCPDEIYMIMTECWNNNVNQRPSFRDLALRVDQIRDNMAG
procedureDetails: JAK2 inhibitory activity, mobility shift assay, 1 mM ATP
Assay type: biochemical
settings: Table 7
propertyMeasured: IC50 (nM)

Previously resolved entries follow.
COc1nn(C)cc1Nc1nccc(-c2c[nH]c3c(NC(=O)[C@H]4CC(F)(F)CN4[C@@H]4CCN(C)C4)cccc23)n1 | 12000
COc1nn(C)cc1Nc1ncc(C)c(-c2c[nH]c3c(NC(=O)[C@H]4CC(F)(F)CN4[C@@H]4CCN(C)C4)cccc23)n1 | 3880
COc1nn(C)cc1Nc1ncc(F)c(-c2c[nH]c3c(NC(=O)[C@H]4CCCN4[C@H]4CCNC4)cccc23)n1 | 5370

1 = COc1nn(C)cc1Nc1ncc(F)c(-c2c[nH]c3c(NC(=O)[C@H]4C[C@H](OC)CN4C4CCNCC4)cccc23)n1
2 = COc1nn(C)cc1Nc1ncc(F)c(-c2c[nH]c3c(NC(=O)[C@H]4CCCN4[C@@H]4CCNC4)cccc23)n1
Req: Lower IC50: 1 or 2 ? I would appreciate it if you answered with the label of your choice.
Resp: 1
(1: 5000 nM, 2: 7280 nM)

###

assayedTarget: JAK2 (Homo sapiens (Human), UniProt O60674)
procedureDetails: JAK2 inhibitory activity, mobility shift assay, 1 mM ATP
Type: biochemical
settings: Table 7
propertyMeasured: IC50 (nM)

Please review the entries below; each comes with its answer.
COc1nn(C)cc1Nc1ncc(C)c(-c2c[nH]c3c(NC(=O)[C@H]4CC(F)(F)CN4[C@H]4CCN(C)C4)cccc23)n1 | 3430
COc1nn(C)cc1Nc1ncc(F)c(-c2c[nH]c3c(NC(=O)[C@H]4CCCN4[C@@H]4CCN(C)C4)cccc23)n1 | 14600
COc1nn(C)cc1Nc1nccc(-c2c[nH]c3c(NC(=O)[C@H]4C[C@H](F)CN4[C@@H]4CCNC4)cccc23)n1 (single isomer, unassigned) | 10200

I = COc1nn(C)cc1Nc1ncc(C)c(-c2c[nH]c3c(NC(=O)[C@H]4CCCN4[C@@H]4CCN(C)C4)cccc23)n1
II = COc1nn(C)cc1Nc1ncc(C)c(-c2c[nH]c3c(NC(=O)[C@H]4CC(F)(F)CN4C4CCN(C)CC4)cccc23)n1
III = COc1nn(C)cc1Nc1ncc(C)c(-c2c[nH]c3c(NC(=O)[C@@H]4CCCN4S(C)(=O)=O)cccc23)n1
Req: Please rank these compounds by IC50 in descending order. Quick reminder: the answer is the labels in the order asked.
Resp: I, II, III

###

assayedTarget: JAK2 (Homo sapiens (Human))
procedureDetails: JAK2 inhibitory activity, mobility shift assay, 1 mM ATP
Assay type: biochemical
settings: Table 7
propertyMeasured: IC50 (nM)

Field: example entries. Status: answers known.
COc1nn(C)cc1Nc1ncc(F)c(-c2c[nH]c3c(NC(=O)[C@H]4CCCN4C4CCN(C)CC4)cccc23)n1 | 14600
COc1nn(C)cc1Nc1ncc(C)c(-c2c[nH]c3c(NC(=O)[C@H]4C[C@H](F)CN4[C@H]4CCN(C)C4)cccc23)n1 | 11900
COc1nn(C)cc1Nc1ncc(C)c(-c2c[nH]c3c(NC(=O)[C@H]4CC(F)(F)CN4[C@@H]4CCOC4)cccc23)n1 | 2510
COc1nn(C)cc1Nc1nccc(-c2c[nH]c3c(NC(=O)[C@H]4CC(F)(F)CN4C4CCN(C)CC4)cccc23)n1 | 10500

A = CCO[C@H]1C[C@H](C(=O)Nc2cccc3c(-c4nc(Nc5cn(C)nc5OC)ncc4C)c[nH]c23)N(C2CCN(C)CC2)C1
B = COc1nn(C)cc1Nc1ncc(F)c(-c2c[nH]c3c(NC(=O)[C@H]4CC(F)(F)CN4[C@H]4CCN(C)C4)cccc23)n1
Req: Pick one: A or B . Which has the bigger IC50 number? Use the label to indicate which entry you chose.
Resp: A
(A: 12000 nM, B: 4400 nM)

###

System: IFNα-induced pSTAT3 (JAK1/TYK2 signaling pathway)
procedureDetails: Mouse whole blood assay, inhibition of IFNα-induced pSTAT3
Format: cell-based
settings: C57BL/6J mouse blood, IFNα 20000 IU/mL
propertyMeasured: IC50 (nM)

Example results:
COc1nn(C)cc1Nc1ncc(C)c(-c2c[nH]c3c(NC(=O)[C@H]4CC(F)(F)CN4[C@@H]4CCN(C)C4)cccc23)n1 | 121
COc1nn(C)cc1Nc1nccc(-c2c[nH]c3c(NC(=O)[C@@H](C)N4CCN(C)CC4)cccc23)n1 [AZD4205, reference compound] | 173

A = CCCS(=O)(=O)N[C@H]1C[C@@H](N(C)c2ncnc3[nH]ccc23)C1 [abrocitinib, reference compound]
B = COc1nn(C)cc1Nc1ncc(C)c(-c2c[nH]c3c(NC(=O)[C@H]4C[C@H](F)CN4[C@@H]4CCN(C)C4)cccc23)n1
Req: Record comparison, field IC50: mark the lower of A and B . Pick one and reply with its label.
Resp: B
(B: 127 nM, A: 204 nM)

###

assayedTarget: JAK2 (Homo sapiens (Human))
procedureDetails: JAK2 inhibitory activity, mobility shift assay, 1 mM ATP
Type: biochemical
settings: Table 7
propertyMeasured: IC50 (nM)

# count of solved cases: 3
COc1nn(C)cc1Nc1nccc(-c2c[nH]c3c(NC(=O)[C@H]4C[C@H](F)CN4[C@H]4CCNC4)cccc23)n1 (single isomer, unassigned) | 15500
COc1nn(C)cc1Nc1nccc(-c2c[nH]c3c(NC(=O)[C@H]4CC(F)(F)CN4[C@H]4CCN(C)C4)cccc23)n1 | 10800
CCS(=O)(=O)N1CCC[C@H]1C(=O)Nc1cccc2c(-c3nc(Nc4cn(C)nc4OC)ncc3F)c[nH]c12 | 1850

A = COc1nn(C)cc1Nc1ncc(F)c(-c2c[nH]c3c(NC(=O)[C@H]4C[C@H](F)CN4[C@@H]4CCN(C)C4)cccc23)n1
B = COc1nn(C)cc1Nc1ncc(F)c(-c2c[nH]c3c(NC(=O)[C@@H]4CCCN4S(C)(=O)=O)cccc23)n1
Req: Identify the entry with the smaller IC50: A or B . Select an item and report its label.
Resp: B
(B: 2820 nM, A: 5280 nM)

1 = COc1nn(C)cc1Nc1ncc(F)c(-c2c[nH]c3c(NC(=O)[C@H]4CCCN4[C@H]4CCN(C)C4)cccc23)n1
2 = COc1nn(C)cc1Nc1ncc(F)c(-c2c[nH]c3c(NC(=O)[C@H]4C[C@H](F)CN4C4CCNCC4)cccc23)n1
Req: Consider entries 1 and 2 . Which has the numerically lower IC50? Your choice should be expressed through its label.
Resp: 2
(2: 4000 nM, 1: 12400 nM)

P = COc1nn(C)cc1Nc1ncc(C)c(-c2c[nH]c3c(NC(=O)[C@H]4C[C@H](OC)CN4C4CCN(C)CC4)cccc23)n1
Q = COc1nn(C)cc1Nc1ncc(C)c(-c2c[nH]c3c(NC(=O)[C@H]4CC(F)(F)CN4[C@H]4CCOC4)cccc23)n1
Req: Of P and Q , which shows the smaller IC50 value? Answer = label.
Resp: Q

A = COc1nn(C)cc1Nc1ncc(C)c(-c2c[nH]c3c(NC(=O)[C@H]4CCCN4C4CCN(C)CC4)cccc23)n1
B = COc1nn(C)cc1Nc1ncc(F)c(-c2c[nH]c3c(NC(=O)[C@H]4CCCN4C4CCNCC4)cccc23)n1
Req: For the two items A and B , which reports the higher IC50 value? I would appreciate it if you answered with the label of your choice.
Resp: A

a = COc1nn(C)cc1Nc1ncc(Cl)c(-c2c[nH]c3c(NC(=O)[C@H]4CCCN4C4CCN(C)CC4)cccc23)n1
b = COc1nn(C)cc1Nc1ncc(C)c(-c2c[nH]c3c(NC(=O)[C@H]4CCCN4[C@H]4CCN(C)C4)cccc23)n1
c = COc1nn(C)cc1Nc1ncc(F)c(-c2c[nH]c3c(NC(=O)[C@H]4CC(F)(F)CN4[C@@H]4CCN(C)C4)cccc23)n1
Req: Output the entries ranked by IC50 from maximum down to minimum. Submit the labels in the order that the ranking request calls for.
Resp: b, c, a
(b: 13400 nM, c: 5490 nM, a: 3640 nM)

###

assayedTarget: JAK1 (Homo sapiens (Human), UniProt P23458)
Sequence (P23458 850-1154): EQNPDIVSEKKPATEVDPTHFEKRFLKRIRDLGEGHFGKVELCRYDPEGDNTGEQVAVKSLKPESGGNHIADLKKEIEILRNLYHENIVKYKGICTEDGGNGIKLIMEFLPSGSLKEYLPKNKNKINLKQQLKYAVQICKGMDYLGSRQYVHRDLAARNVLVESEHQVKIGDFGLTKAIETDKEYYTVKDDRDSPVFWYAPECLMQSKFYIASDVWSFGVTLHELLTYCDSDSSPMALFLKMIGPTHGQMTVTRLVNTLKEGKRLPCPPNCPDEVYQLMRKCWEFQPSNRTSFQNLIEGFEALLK
procedureDetails: JAK1 inhibitory activity, mobility shift assay, 1 mM ATP
Format: biochemical
settings: 1 mM ATP; Table 7
propertyMeasured: IC50 (nM)

Worked examples follow.
COc1nn(C)cc1Nc1nccc(-c2c[nH]c3c(NC(=O)[C@H]4C[C@H](F)CN4[C@@H]4CCN(C)C4)cccc23)n1 (single isomer, unassigned) [Example 20] | 120
COc1nn(C)cc1Nc1ncc(F)c(-c2c[nH]c3c(NC(=O)[C@H]4CC(F)(F)CN4[C@@H]4CCN(C)C4)cccc23)n1 [Example 26] | 48
COc1nn(C)cc1Nc1ncc(C)c(-c2c[nH]c3c(NC(=O)[C@H]4C[C@H](F)CN4C4CCN(C)CC4)cccc23)n1 [Example 14] | 41
COc1nn(C)cc1Nc1ncc(F)c(-c2c[nH]c3c(NC(=O)[C@H]4C[C@H](OC)CN4C4CCNCC4)cccc23)n1 [Example 9] | 51

1 = COc1nn(C)cc1Nc1ncc(F)c(-c2c[nH]c3c(NC(=O)[C@H]4CCCN4[C@@H]4CCNC4)cccc23)n1 [Example 22]
2 = COc1nn(C)cc1Nc1nccc(-c2c[nH]c3c(NC(=O)[C@H]4C[C@H](F)CN4[C@H]4CCNC4)cccc23)n1 (single isomer, unassigned) [Example 19]
3 = COc1nn(C)cc1Nc1ncc(F)c(-c2c[nH]c3c(NC(=O)[C@H]4C[C@@H](F)CN4C4CCNCC4)cccc23)n1 [Example 7]
4 = COc1nn(C)cc1Nc1ncc(Cl)c(-c2c[nH]c3c(NC(=O)[C@H]4CCCN4C4CCN(C)CC4)cccc23)n1 [Example 15]
Req: Arrange these molecules by their IC50, starting with the largest number. Would you mind listing the labels in the order asked for?
Resp: 2, 3, 1, 4
(2: 368 nM, 3: 152 nM, 1: 46 nM, 4: 27 nM)

1 = COc1nn(C)cc1Nc1ncc(F)c(-c2c[nH]c3c(NC(=O)[C@H]4CCCN4[C@H]4CCNC4)cccc23)n1 [Example 23]
2 = COc1nn(C)cc1Nc1ncc(C)c(-c2c[nH]c3c(NC(=O)[C@H]4CCCN4[C@@H]4CCN(C)C4)cccc23)n1 [Example 28]
Req: Between the entries labeled 1 and 2 , whose measured IC50 is lower? Respond using the label that marks the chosen record.
Resp: 2
(2: 40 nM, 1: 59 nM)

A = COc1nn(C)cc1Nc1nccc(-c2c[nH]c3c(NC(=O)[C@H]4C[C@H](F)CN4[C@H]4CCN(C)C4)cccc23)n1 (single isomer, unassigned) [Example 21]
B = COc1nn(C)cc1Nc1ncc(C)c(-c2c[nH]c3c(NC(=O)[C@@H]4CCCN4S(C)(=O)=O)cccc23)n1 [Example 3]
C = COc1nn(C)cc1Nc1ncc(C)c(-c2c[nH]c3c(NC(=O)[C@H]4CC(F)(F)CN4[C@@H]4CCN(C)C4)cccc23)n1 [Example 32]
D = COc1nn(C)cc1Nc1ncc(F)c(-c2c[nH]c3c(NC(=O)[C@H]4C[C@@H](OC)CN4C4CCNCC4)cccc23)n1 [Example 8]
Req: Sort by IC50, descending. Answer with the labels in sequence, matching the requested order.
Resp: D, A, B, C
(D: 1170 nM, A: 262 nM, B: 70 nM, C: 26 nM)

1 = COc1nn(C)cc1Nc1ncc(F)c(-c2c[nH]c3c(NC(=O)[C@H]4CC(F)(F)CN4[C@H]4CCN(C)C4)cccc23)n1 [Example 27]
2 = COc1nn(C)cc1Nc1ncc(C)c(-c2c[nH]c3c(NC(=O)[C@H]4C[C@H](F)CN4[C@@H]4CCN(C)C4)cccc23)n1 [Example 30]
3 = COc1nn(C)cc1Nc1ncc(C)c(-c2c[nH]c3c(NC(=O)[C@H]4CC(F)(F)CN4[C@H]4CCOC4)cccc23)n1 [Example 35]
4 = COc1nn(C)cc1Nc1nccc(-c2c[nH]c3c(NC(=O)[C@H]4CC(F)(F)CN4[C@H]4CCN(C)C4)cccc23)n1 [Example 37]
Req: In this exercise, place the 4 molecules in ascending sequence of their recorded IC50. Return value: ordered labels per request.
Resp: 2, 1, 3, 4

A = COc1nn(C)cc1Nc1ncc(C)c(-c2c[nH]c3c(NC(=O)[C@H]4CCCN4C4CCN(C)CC4)cccc23)n1 [Example 11]
B = COc1nn(C)cc1Nc1ncc(C)c(-c2c[nH]c3c(NC(=O)[C@H]4C[C@H](OC)CN4C4CCN(C)CC4)cccc23)n1 [Example 13]
Req: Min IC50? A | B Answer format: the label of the selected item.
Resp: A
(A: 69 nM, B: 101 nM)

A = COc1nn(C)cc1Nc1ncc(C)c(-c2c[nH]c3c(NC(=O)[C@H]4C[C@H](F)CN4[C@H]4CCN(C)C4)cccc23)n1 [Example 31]
B = CCS(=O)(=O)N1CCC[C@H]1C(=O)Nc1cccc2c(-c3nc(Nc4cn(C)nc4OC)ncc3F)c[nH]c12 [Example 2]
Req: Hi team, can someone confirm which has the larger IC50: A or B ? Thanks. Kindly state the label of the option you pick.
Resp: B

1 = COc1nn(C)cc1Nc1ncc(C)c(-c2c[nH]c3c(NC(=O)[C@H]4CC(F)(F)CN4C4CCN(C)CC4)cccc23)n1 [Example 16]
2 = COc1nn(C)cc1Nc1nccc(-c2c[nH]c3c(NC(=O)[C@H]4C[C@H](F)CN4[C@@H]4CCNC4)cccc23)n1 (single isomer, unassigned) [Example 18]
Req: Recorded IC50 values differ for 1 and 2 ; which one is higher? Answer by quoting the chosen item's label.
Resp: 2
